- ASSAY CONDITIONS: in n-propanol, 323.15 K
REPORTED ENDPOINT: solubility (mole fraction)

Measured solubility (mole fraction) of "CC(C)[C@H](N)C(=O)O" : 7.7e-05

====

- ASSAY CONDITIONS: in isobutanol, 308.15 K
REPORTED ENDPOINT: solubility (mole fraction)
Answer using only a numeral; do not append any unit.

Measured solubility (mole fraction) of "CC(C)[C@H](N)C(=O)O" : 0.000151

====

- ASSAY CONDITIONS: in 1,4-dioxane, 293.15 K
REPORTED ENDPOINT: solubility (mole fraction)
Answer using only a numeral; do not append any unit.

Measured solubility (mole fraction) of "CC(C)[C@H](N)C(=O)O" : 8.7e-05

====

- ASSAY CONDITIONS: in n-butanol, 288.15 K
REPORTED ENDPOINT: solubility (mole fraction)
Answer using only a numeral; do not append any unit.

Measured solubility (mole fraction) of "CC(C)[C@H](N)C(=O)O" : 3.1e-05

====

- ASSAY CONDITIONS: in ethyl acetate, 323.15 K
REPORTED ENDPOINT: solubility (mole fraction)
Answer using only a numeral; do not append any unit.

Measured solubility (mole fraction) of "CC(C)[C@H](N)C(=O)O" : 0.000136

====

- ASSAY CONDITIONS: in n-propanol, 293.15 K
REPORTED ENDPOINT: solubility (mole fraction)

Measured solubility (mole fraction) of "CC(C)[C@H](N)C(=O)O" : 2.3e-05

====

- ASSAY CONDITIONS: in ethanol, 298.15 K
REPORTED ENDPOINT: solubility (mole fraction)
Answer using only a numeral; do not append any unit.

Measured solubility (mole fraction) of "CC(C)[C@H](N)C(=O)O" : 0.000286

====

- ASSAY CONDITIONS: in water, 288.15 K
REPORTED ENDPOINT: solubility (mole fraction)
Answer using only a numeral; do not append any unit.

Measured solubility (mole fraction) of "CC(C)[C@H](N)C(=O)O" : 0.00921

====

- ASSAY CONDITIONS: in 1,4-dioxane, 323.15 K
REPORTED ENDPOINT: solubility (mole fraction)
Answer using only a numeral; do not append any unit.

Measured solubility (mole fraction) of "CC(C)[C@H](N)C(=O)O" : 0.00041

====

- ASSAY CONDITIONS: in water, 308.15 K
REPORTED ENDPOINT: solubility (mole fraction)
Answer using only a numeral; do not append any unit.

Measured solubility (mole fraction) of "CC(C)[C@H](N)C(=O)O" : 0.00998

====

- ASSAY CONDITIONS: in ethyl acetate, 293.15 K
REPORTED ENDPOINT: solubility (mole fraction)
Answer using only a numeral; do not append any unit.

Measured solubility (mole fraction) of "CC(C)[C@H](N)C(=O)O" : 4.6e-05

====

- ASSAY CONDITIONS: in 1,4-dioxane, 308.15 K
REPORTED ENDPOINT: solubility (mole fraction)

Measured solubility (mole fraction) of "CC(C)[C@H](N)C(=O)O" : 0.000223

====

- ASSAY CONDITIONS: in ethyl acetate, 283.15 K
REPORTED ENDPOINT: solubility (mole fraction)
Answer using only a numeral; do not append any unit.

Measured solubility (mole fraction) of "CC(C)[C@H](N)C(=O)O" : 3.1e-05

====

- ASSAY CONDITIONS: in acetone, 283.15 K
REPORTED ENDPOINT: solubility (mole fraction)
Answer using only a numeral; do not append any unit.

Measured solubility (mole fraction) of "CC(C)[C@H](N)C(=O)O" : 3.1e-05

====

- ASSAY CONDITIONS: in water, 323.15 K
REPORTED ENDPOINT: solubility (mole fraction)
Answer using only a numeral; do not append any unit.

Measured solubility (mole fraction) of "CC(C)[C@H](N)C(=O)O" : 0.0108

====

- ASSAY CONDITIONS: in methanol, 303.15 K
REPORTED ENDPOINT: solubility (mole fraction)
Answer using only a numeral; do not append any unit.

Measured solubility (mole fraction) of "CC(C)[C@H](N)C(=O)O" : 0.000684

====

- ASSAY CONDITIONS: in isopropanol, 298.15 K
REPORTED ENDPOINT: solubility (mole fraction)
Answer using only a numeral; do not append any unit.

Measured solubility (mole fraction) of "CC(C)[C@H](N)C(=O)O" : 3.2e-05

====

- ASSAY CONDITIONS: in isobutanol, 293.15 K
REPORTED ENDPOINT: solubility (mole fraction)
Answer using only a numeral; do not append any unit.

Measured solubility (mole fraction) of "CC(C)[C@H](N)C(=O)O" : 7.8e-05

====

- ASSAY CONDITIONS: in isopropanol, 288.15 K
REPORTED ENDPOINT: solubility (mole fraction)

Measured solubility (mole fraction) of "CC(C)[C@H](N)C(=O)O" : 1.8e-05

====

- ASSAY CONDITIONS: in water, 298.15 K
REPORTED ENDPOINT: solubility (mole fraction)
Answer using only a numeral; do not append any unit.

Measured solubility (mole fraction) of "CC(C)[C@H](N)C(=O)O" : 0.00954

====

- ASSAY CONDITIONS: in water, 303.15 K
REPORTED ENDPOINT: solubility (mole fraction)
Answer using only a numeral; do not append any unit.

Measured solubility (mole fraction) of "CC(C)[C@H](N)C(=O)O" : 0.00976

====

- ASSAY CONDITIONS: in methanol, 308.15 K
REPORTED ENDPOINT: solubility (mole fraction)
Answer using only a numeral; do not append any unit.

Measured solubility (mole fraction) of "CC(C)[C@H](N)C(=O)O" : 0.000717

====

- ASSAY CONDITIONS: in acetone, 318.15 K
REPORTED ENDPOINT: solubility (mole fraction)

Measured solubility (mole fraction) of "CC(C)[C@H](N)C(=O)O" : 0.000216
